This collection of values is drawn from patent EP4741380A1.

Assay: In vivo pharmacokinetic evaluation in mice
Parameters: species or system ICR mice
Settings: ICR, mouse, plasma, PO (30 mg/kg) vs IV (6 mg/kg)

molecule	bioavailability, %
Cc1cc(C2=NO[C@@](c3cc(Cl)cc(C(F)(F)F)c3)(C(F)(F)F)C2)ccc1C(=O)NCC(=O)NC1(C(F)(F)F)CC1	83.1
Cc1cc(C2=NOC(c3cc(Cl)cc(Cl)c3)(C(F)(F)F)C2)ccc1C(=O)NCC(=O)NC1CC1 (stereo not drawn) [Example 39 (Comparative Example 1), reference compound]	93.1
Cc1cc(C2=NO[C@@](c3cc(Cl)cc(Cl)c3)(C(F)(F)F)C2)ccc1C(=O)NCC(=O)NC1(C(F)(F)F)CC1	94.6

* * *

System: Mite
Test: Killing efficacy test against agricultural pests: mite test (treated filter paper)
Assay type: in vivo, mites
Settings: 0.2 mg/L, after 72 h
Method: Solution preparation: 2 mg of a test compound was weighed and dissolved in 200 µL of acetone, and the sample was diluted with an aqueous solution containing 0.1% Tween 80 to a required concentration to obtain a test solution. 1. Diamondback moth test: The test sample was prepared into solutions with final concentrations of 0.0156 mg/L, 0.125 mg/L, and 1 mg/L. Fresh and clean rapeseed leaves were cut into small pieces of 3 cm × 3 cm. […]
measurement.type: Corrected Mortality Rate (%)

> print(dat)
                                   compound              measurement.type  unit  measured.value
1  Cc1cc(C2=NOC(c3cc(Cl)c(Cl)c(C(F)(F)F)c3)(C(F)(F)F)C2)ccc1C(=O)NCC(=O)NC1(C(F)(F)F)CC1 (stereo not shown)  Corrected Mortality Rate (%)     %              70
2  Cc1cc(C2=NO[C@@](c3cc(Cl)cc(Cl)c3)(C(F)(F)F)C2)ccc1C(=O)NCC(=O)NC1(C(F)(F)F)CC1  Corrected Mortality Rate (%)     %              86
3  Cc1cc(C2=NOC(c3cc(C(F)(F)F)cc(C(F)(F)F)c3)(C(F)(F)F)C2)ccc1C(=O)NCC(=O)NC1(C(F)(F)F)CC1 (stereo not shown)  Corrected Mortality Rate (%)     %              66
4  Cc1cc(C2=NO[C@@](c3cc(Cl)cc(C(F)(F)F)c3)(C(F)(F)F)C2)ccc1C(=O)NCC(=O)NC1(C(F)(F)F)CC1  Corrected Mortality Rate (%)     %              92

* * *

Test system: Mite
Test: Killing efficacy test against agricultural pests: mite test (treated filter paper)
Type: in vivo, mites
Conditions: 0.02 mg/L, after 72 h
Each entry below carries its recorded Corrected Mortality Rate (%).
measurement.type: Corrected Mortality Rate (%)

> print(dat)
                                   compound  test.system  measured.value
1  Cc1cc(C2=NO[C@@](c3cc(Cl)cc(Cl)c3)(C(F)(F)F)C2)ccc1C(=O)NCC(=O)NC1(C(F)(F)F)CC1 [Example 011]         Mite             34%
2  Cc1cc(C2=NO[C@@](c3cc(Cl)cc(C(F)(F)F)c3)(C(F)(F)F)C2)ccc1C(=O)NCC(=O)NC1(C(F)(F)F)CC1 [Example 008]         Mite             62%
3  Cc1cc(C2=NOC(c3cc(Cl)c(Cl)c(C(F)(F)F)c3)(C(F)(F)F)C2)ccc1C(=O)NCC(=O)NC1(C(F)(F)F)CC1 (stereo not shown) [Example 029]         Mite             54%
4  Cc1cc(C2=NOC(c3cc(C(F)(F)F)cc(C(F)(F)F)c3)(C(F)(F)F)C2)ccc1C(=O)NCC(=O)NC1(C(F)(F)F)CC1 (stereo not shown) [Example 030]         Mite             34%
